Property: IC50; scope: individual compounds
Target: human ENT1 (Homo sapiens, UniProt Q99808)
Sequence (Q99808 whole entry): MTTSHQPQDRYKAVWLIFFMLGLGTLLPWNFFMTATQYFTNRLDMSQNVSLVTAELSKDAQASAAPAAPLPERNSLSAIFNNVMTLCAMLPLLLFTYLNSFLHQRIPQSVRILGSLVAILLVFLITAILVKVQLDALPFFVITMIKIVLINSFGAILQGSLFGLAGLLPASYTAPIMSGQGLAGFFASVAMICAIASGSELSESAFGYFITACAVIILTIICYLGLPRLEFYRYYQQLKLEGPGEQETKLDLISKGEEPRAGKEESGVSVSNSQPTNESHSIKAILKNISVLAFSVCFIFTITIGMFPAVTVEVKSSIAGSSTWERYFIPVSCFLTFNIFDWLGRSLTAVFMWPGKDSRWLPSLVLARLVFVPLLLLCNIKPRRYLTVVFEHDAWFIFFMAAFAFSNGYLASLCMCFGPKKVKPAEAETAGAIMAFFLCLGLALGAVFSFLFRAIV
Assay: ENT1 binding assay (competition with Sahenta-DY647 on JAR cells)
Set-up: JAR cells expressing ENT1 were bought from ATCC; host or cells: JAR cells
Conditions: binned IC50
Procedure: Purpose. […] By measuring the fluorescence at the end of the assay we could assess the binding potency of the compounds of the present invention. JAR cells were resuspended in the described buffer. Compounds of the present invention and Sahenta-DY647 were diluted 200× in the described buffer. The total volume of the reaction was 100 μL (50 μL of cells, 25 μL of the compounds of the present invention and 25 μL of Sahenta-DY647) in a 96 well plate, U-bottom (Greiner®, #650-180). […]

Field: example entries. Status: answers known.
In [3]: df
Out[3]:
                                   compound  experimental_readout         result
0  COCCN(CCOC)c1nc(N2CCC(OC)CC2)c2nc(N(CCO)CCO)nc(N3CCc4oc(C)nc4C3)c2n1                  IC50  0.1 to 0.5 µM
1  COCCN(CCOC)c1nc(N2CCN(C)C(=O)C2)c2nc(N(CCOC)CCOC)nc(N3CCN(c4ncn(C)n4)CC3)c2n1                  IC50  0.1 to 0.5 µM
2  COCCN(CCOC)c1nc(N2CCC(OC)CC2)c2nc(N(CCOC)CCOC)nc(NCc3ccc(Cl)c(C#N)c3)c2n1                  IC50       < 0.1 µM

Q: Value lookup for IC50; key = "CCOC(=O)N1CCN(c2nc(N3CCC(OC)CC3)c3nc(N(CCOC)CCOC)nc(N4CCC(OC)CC4)c3n2)CC1"
Ans: 0.5 to 1 µM

Q: Note, next up: "COCCN(CCOC)c1nc(N2CCC(OC)CC2)c2nc(N(CCOC)CCOC)nc(OCc3cccc(Cl)c3)c2n1"
Ans: < 0.1 µM

Q: Note, next up: "COCCN(CCOC)c1nc(NCc2cccc(C#N)c2)c2nc(N(CCO)CCO)nc(N3CCC(OC)CC3)c2n1"
Ans: < 0.1 µM

Q: Note, next up: COCCN(CCOC)c1nc(N2CCCC(OC)C2)c2nc(N(CCOC)CCOC)nc(N3CCC(OC)CC3)c2n1 (stereo not shown)
Ans: 0.1 to 0.5 µM
